System: OVCAR4
Parameters: MTT antiproliferation assay, absorbance at 570 nm, human cancer cell line panel
Conditions: 3-day MTT; inhibitor; read-out: Table S1. IC50 of CCT271850 determined by MTT and clonogenic assays (CA). / All cell lines were tested at least 2 times. / 3-day MTT
Experimental: Cell lines were obtained from the American Type Culture Collection and grown in their recommended culture medium, supplemented with 10% FBS at 37 °C in 5% CO2. […] Absorbance was measured at 570 nm with the Wallac VICTOR2 1420 Multilabel Counter (PerkinElmer, Waltham, MA, USA). […] The growth inhibition values as measured by IC50 are summarised in Table 2 and Supplementary Table S1. […]
Property name: pIC50
Bear in mind: pIC50 is minus log10 of a mol/L concentration; give just that figure.

Lookup: Indicate the recorded pIC50 value for this compound: COc1cc(-c2cnn(C)c2)ccc1Nc1ncc2ccnc(N[C@@H](C)C(C)(C)C)c2n1 [34h, CCT271850]
Found: 5.31

Data credit: paper PMC5418449
